Tested on: bovine cardiac myofibrils
test name: Myofibril assay: PK/LDH-coupled steady-state ATPase activity of skinned bovine cardiac myofibrils
Assay type: biochemical
condition summary: Ca2+ activating to 75% of maximal rate
Examples of molecules with documented CDMF75 IC15 follow.
attribute measured: CDMF75 IC15 (µM)

• CC(=O)NCC1(C)C(=O)N(c2ncc(Cl)cc2F)CC(=O)N1Cc1ccc(Cl)cc1 (centres unmarked) = 17.3
• CNc1cc(N2CC3(C2)C(=O)N(c2ccc(C#N)cc2F)CC(=O)N3Cc2ccc(C(F)(F)F)cc2)ccc1C(=O)OC = 0.2
• CCC1CCC(N2CC(=O)N(Cc3ccc(C(F)(F)F)cc3)C3(CN(C(C)=O)C3)C2=O)CC1 (centres unmarked) = 6.4
• N#Cc1ccc(N2CC(=O)N(Cc3ccc(C(F)(F)F)cc3)C(C3COC3)C2=O)c(F)c1 (centres unmarked) = 3.8
• COc1cnc(N2CC(=O)N(Cc3ccc(F)c(Cl)c3)C(C3COC3)C2=O)c(F)c1 (centres unmarked) = 8.0
• CC(=O)N1CC[C@]2(C1)C(=O)N(c1ccc(C#N)cc1F)CC(=O)N2Cc1ccc(Cl)cc1 = 0.5
• CC(C)N1CC(=O)N(Cc2ccc(C(F)(F)F)cc2)C(c2ccc(Cl)cc2)C1=O (centres unmarked) = 2.8

###

Test system: bovine cardiac myofibrils
test name: Myofibril assay: PK/LDH-coupled steady-state ATPase activity of skinned bovine cardiac myofibrils
Type: biochemical
condition summary: Ca2+ activating to 75% of maximal rate
Classes are defined on CDMF75 IC15 with ranges lower level: < 1 µM; middle level: ≥ 1 µM and < 10 µM; upper level: ≥ 10 µM

* CC(=O)N1CC[C@]2(C1)C(=O)N(c1ccc(OC(F)F)cc1)CC(=O)N2Cc1ccc(Cl)cc1 | upper level
* Cc1ccc(CN2C(=O)CN(c3ncc(Cl)cc3C)C(=O)C2C2COC2)cc1F (stereo not drawn) | upper level
* CNC(=O)c1ccccc1N1CC2(C1)C(=O)N(c1ccc(C#N)cc1F)CC(=O)N2Cc1ccc(C(F)(F)F)cc1 | lower level
* O=C1CN(c2ncc(Cl)cc2F)C(=O)C2(COC2)N1Cc1ccc(Cl)cc1 | middle level
* CC(=O)N1CC2(C1)CC1(C2)C(=O)N(c2ncc(Cl)cc2F)CC(=O)N1Cc1ccc(C(F)F)cc1 | middle level
* COC(=O)c1ccccc1N1CC2(C1)C(=O)N(c1ccc(C#N)cc1F)CC(=O)N2Cc1ccc(C(F)(F)F)cc1 | lower level
* CC(=O)NC[C@H]1C(=O)N(c2ncc(Cl)cc2F)CC(=O)N1Cc1ccc(C(F)(F)F)cc1 | upper level
* N#Cc1ccc(N2CC(=O)N(Cc3ccc(C(F)(F)F)cc3)C3(CN(C(N)=O)C3)C2=O)cc1F | lower level
* CC(C)N1CC(=O)N(Cc2ccc(Cl)cc2)C2(CN(c3cscn3)C2)C1=O | middle level
* CC(C)N1CC(=O)N(Cc2ccc(Cl)cc2)C2(CC(c3ccccc3)C2)C1=O (stereo not drawn) | middle level
* CC(=O)N1CC2(C1)C(=O)N(c1ccc(Cl)cc1F)C(C)C(=O)N2Cc1ccc(C(F)(F)F)cc1 (stereo not drawn) | middle level
* O=C1C(CO)N(Cc2ccc(C(F)(F)F)cc2)C(=O)CN1c1ncc(Cl)cc1F (single isomer, unassigned) [Compound 857B] | upper level
